- target: full-length beta-catenin (Axin site) (Homo sapiens)
- Construct: 15 nM full-length beta-catenin, 20 nM FITC labeled peptide in buffer
- Sequence (P35222 1-781): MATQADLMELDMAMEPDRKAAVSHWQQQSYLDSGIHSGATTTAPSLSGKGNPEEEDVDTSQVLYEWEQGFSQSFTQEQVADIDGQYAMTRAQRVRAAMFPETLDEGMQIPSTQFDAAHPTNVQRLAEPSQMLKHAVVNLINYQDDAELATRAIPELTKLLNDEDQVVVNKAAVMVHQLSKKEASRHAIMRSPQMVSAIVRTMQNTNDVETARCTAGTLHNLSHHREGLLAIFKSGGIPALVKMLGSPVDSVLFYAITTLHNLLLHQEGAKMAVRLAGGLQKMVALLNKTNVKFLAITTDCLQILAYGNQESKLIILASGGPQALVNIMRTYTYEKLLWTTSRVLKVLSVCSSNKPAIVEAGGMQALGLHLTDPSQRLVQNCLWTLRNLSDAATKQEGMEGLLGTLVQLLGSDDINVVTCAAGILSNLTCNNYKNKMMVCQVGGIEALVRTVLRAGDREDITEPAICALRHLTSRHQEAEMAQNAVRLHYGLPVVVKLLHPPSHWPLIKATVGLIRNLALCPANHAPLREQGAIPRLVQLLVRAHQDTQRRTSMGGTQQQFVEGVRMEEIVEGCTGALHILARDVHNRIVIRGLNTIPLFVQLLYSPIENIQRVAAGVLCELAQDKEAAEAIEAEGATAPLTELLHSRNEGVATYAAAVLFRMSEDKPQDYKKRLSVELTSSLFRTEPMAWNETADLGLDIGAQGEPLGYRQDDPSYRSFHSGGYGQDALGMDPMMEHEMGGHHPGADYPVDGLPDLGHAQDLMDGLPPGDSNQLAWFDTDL
- assayMethodText: Competition fluorescence polarization assay (Axin site probe)
- Assay type: binding
- testSettings: competition with FITC labeled Axin-site probe, 15 nM full-length beta-catenin; read-out: FP EC50
- Protocol: FIG. 1. […] Peptide solutions were prepared in buffer (50 mM Tris pH 8.0, 250 mM NaCl, 2% glycerol, 0.5 mM EDTA, 0.02% w/v sodium azide) using a 3-fold serial dilution from 5 μM. […] Equal volume of the titrated peptide was added to the plate and incubated protected from light for 15 minutes prior to read. Reads were performed on a Spectramax M5 (Molecular Devices) in duplicate. FIG. 7. […] Reads were performed on a Spectramax M5 (Molecular Devices) in duplicate. […]
Quick list: pEC50 per entry.
Keep in mind that pEC50 stands for -log10 of concentration in molar terms.

Some molecules with known pEC50 results, for comparison:
CC[C@H](C)[C@@H]1NC(=O)[C@](C)(NC(=O)[C@H](CCC(N)=O)NC(=O)[C@@H]2CCCN2C(C)=O)CCCC=CCN(C)CC[C@](C)(C(=O)N[C@@H](Cc2c[nH]cn2)C(=O)N[C@H](C(=O)N[C@@H](CCCNC(=N)N)C(=O)N[C@@H](CCCNC(=N)N)C(=O)N[C@H](C(=O)N[C@@H](Cc2c[nH]c3ccccc23)C(=O)N[C@@H](CCCNC(=N)N)C(N)=O)C(C)C)C(C)C)NC(=O)[C@H](CC(=O)O)NC(=O)[C@H](CC(C)C)NC1=O (single isomer, unassigned)	6.24
CC[C@H](C)[C@@H]1NC(=O)[C@@](C)(NC(=O)[C@H](CCC(N)=O)NC(=O)[C@@H]2CCCN2C(C)=O)CCCCCC=CCN2CC(C(=O)N[C@@H](Cc3c[nH]cn3)C(=O)N[C@H](C(=O)N[C@@H](CCCNC(=N)N)C(=O)N[C@@H](CCCNC(=N)N)C(=O)N[C@H](C(=O)N[C@@H](Cc3c[nH]c4ccccc34)C(=O)N[C@@H](CCCNC(=N)N)C(N)=O)C(C)C)C(C)C)(C2)NC(=O)[C@H](CC(=O)O)NC(=O)[C@H](CC(C)C)NC1=O (single isomer, unassigned) [FP-0738, Ac-P-Q-S7-I-L-D-Az-H-V-R-R-V-W-R-NH2]	6.70

I am curious: what pEC50 value has been reported for CC[C@H](C)[C@@H]1NC(=O)[C@@]2(NC(=O)[C@H](CCC(N)=O)NC(=O)[C@@H]3CCCN3C(C)=O)CCN(C2)C(=O)OCC=CCCCC[C@](C)(C(=O)N[C@@H](Cc2c[nH]cn2)C(=O)N[C@H](C(=O)N[C@@H](CCCNC(=N)N)C(=O)N[C@@H](CCCNC(=N)N)C(=O)N[C@H](C(=O)N[C@@H](Cc2c[nH]c3ccccc23)C(=O)N[C@@H](CCCNC(=N)N)C(N)=O)C(C)C)C(C)C)NC(=O)[C@H](CC(=O)O)NC(=O)[C@H](CC(C)C)NC1=O (single isomer, unassigned) [FP-0745c, Ac-P-Q-PR-I-L-D-R6-H-V-R-R-V-W-R-NN2] ? 6.96
